- Test Target: mouse TRPM3α2 (mTRPM3) ion channel (Mus musculus)
- Assay Notes: TRPM3 ion channel driven Ca2+ uptake, Fluo-4 AM assay, mTRPM3alpha2 overexpressing flip-in HEK293 cells stimulated with pregnenolone sulfate (50 μM)
- Test Context: mTRPM3 overexpressing HEK293 cells stimulated with pregnenolone sulfate (50 μM), activity ranges A, B, C
Result Type: IC50

Answered cases to consult:
> print(dat)
                                   compound  experimental.value
1  Cn1nc2ccc(OCc3cccnc3C(F)(F)F)cc2c1C(=O)NC1(C(N)=O)CCOC1 (single isomer, unassigned) [Cpd 178 - En2]              < 1 µM
2  Cn1nc2ccc(OCC3CC3)cc2c1C(=O)NC1(C(N)=O)CCOC1 (single isomer, unassigned) [Cpd 165 - En2]             > 20 µM

Fill in: mouse TRPM3α2 (mTRPM3) ion channel (Mus musculus) IC50 for CN(C)CC(C)(CC(F)F)NC(=O)c1c2cc(OCc3ccccn3)ccc2nn1C (single isomer, unassigned) [Cpd 229 - En2] = > 20 µM

Fill in: mouse TRPM3α2 (mTRPM3) ion channel (Mus musculus) IC50 for Cn1nc2ccc(OCc3ccccn3)cc2c1C(=O)N[C@H]1CCN(CCO)C1=O [Cpd 153] = > 20 µM

Fill in: mouse TRPM3α2 (mTRPM3) ion channel (Mus musculus) IC50 for Cc1ncsc1COc1ccc2nn(C)c(C(=O)NC(C)(C)C(N)=O)c2c1 [Cpd 110] = 1 to 20 µM

Fill in: mouse TRPM3α2 (mTRPM3) ion channel (Mus musculus) IC50 for Cn1nc2ccc(OCc3cccnc3C(F)(F)F)cc2c1C(=O)NC1(CO)CC1 [Cpd 022] = 1 to 20 µM

Fill in: mouse TRPM3α2 (mTRPM3) ion channel (Mus musculus) IC50 for C[C@@H](NC(=O)c1c2cc(OCc3ccccc3F)ccc2nn1C)C(N)=O [Cpd 098] = 1 to 20 µM

Fill in: mouse TRPM3α2 (mTRPM3) ion channel (Mus musculus) IC50 for Cc1ncsc1COc1ccc2nn(C)c(C(=O)N[C@H](CO)C(N)=O)c2c1 [Cpd 113] = 1 to 20 µM

---

- Test Target: mouse TRPM3α2 (mTRPM3) ion channel (Mus musculus, UniProt J9SQF3)
- Construct: expressed in transfected cells; host or cells: flip-in HEK293
- Sequence (J9SQF3 1-1709 isoform J9SQF3-12): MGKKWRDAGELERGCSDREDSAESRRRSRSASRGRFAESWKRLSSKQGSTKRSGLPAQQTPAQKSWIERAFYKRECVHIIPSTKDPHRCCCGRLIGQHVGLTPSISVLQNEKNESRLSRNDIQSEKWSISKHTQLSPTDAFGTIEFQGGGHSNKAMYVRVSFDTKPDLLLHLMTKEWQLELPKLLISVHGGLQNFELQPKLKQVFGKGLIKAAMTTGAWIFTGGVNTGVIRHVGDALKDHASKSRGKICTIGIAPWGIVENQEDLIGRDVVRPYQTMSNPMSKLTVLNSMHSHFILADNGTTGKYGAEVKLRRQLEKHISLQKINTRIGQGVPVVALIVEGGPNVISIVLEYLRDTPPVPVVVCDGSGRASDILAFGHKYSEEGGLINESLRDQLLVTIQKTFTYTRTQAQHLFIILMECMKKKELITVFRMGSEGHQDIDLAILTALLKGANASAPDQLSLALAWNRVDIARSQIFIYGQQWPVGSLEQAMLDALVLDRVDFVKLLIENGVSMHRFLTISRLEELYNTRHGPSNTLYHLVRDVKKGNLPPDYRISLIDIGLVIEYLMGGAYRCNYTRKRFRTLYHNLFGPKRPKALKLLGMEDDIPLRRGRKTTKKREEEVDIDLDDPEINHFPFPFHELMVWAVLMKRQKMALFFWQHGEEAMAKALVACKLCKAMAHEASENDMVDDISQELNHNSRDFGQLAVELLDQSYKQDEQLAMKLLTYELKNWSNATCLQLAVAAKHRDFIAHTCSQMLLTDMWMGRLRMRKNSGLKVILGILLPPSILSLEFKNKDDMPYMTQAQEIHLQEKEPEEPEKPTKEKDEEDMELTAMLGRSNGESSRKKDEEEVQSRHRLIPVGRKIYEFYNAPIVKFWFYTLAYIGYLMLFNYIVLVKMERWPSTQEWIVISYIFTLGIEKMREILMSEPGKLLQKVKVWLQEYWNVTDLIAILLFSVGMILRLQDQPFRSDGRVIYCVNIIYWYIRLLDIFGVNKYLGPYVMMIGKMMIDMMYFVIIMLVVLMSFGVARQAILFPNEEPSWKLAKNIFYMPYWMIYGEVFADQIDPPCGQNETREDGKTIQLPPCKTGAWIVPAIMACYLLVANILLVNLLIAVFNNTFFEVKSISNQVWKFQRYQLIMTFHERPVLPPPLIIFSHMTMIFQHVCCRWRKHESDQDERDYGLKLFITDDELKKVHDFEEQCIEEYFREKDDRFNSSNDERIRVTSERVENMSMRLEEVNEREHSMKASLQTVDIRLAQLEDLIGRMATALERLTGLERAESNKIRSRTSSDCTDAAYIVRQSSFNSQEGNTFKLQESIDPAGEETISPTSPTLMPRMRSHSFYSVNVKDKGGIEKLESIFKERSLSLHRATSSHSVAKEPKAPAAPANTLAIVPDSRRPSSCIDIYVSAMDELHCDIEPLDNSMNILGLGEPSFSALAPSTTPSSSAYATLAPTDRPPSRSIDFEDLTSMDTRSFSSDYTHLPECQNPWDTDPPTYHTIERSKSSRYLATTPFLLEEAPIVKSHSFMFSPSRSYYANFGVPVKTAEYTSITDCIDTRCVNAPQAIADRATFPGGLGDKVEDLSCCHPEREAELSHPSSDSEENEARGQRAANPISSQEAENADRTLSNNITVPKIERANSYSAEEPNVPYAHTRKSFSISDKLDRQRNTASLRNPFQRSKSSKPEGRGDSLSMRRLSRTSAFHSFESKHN
- Assay Notes: TRPM3 ion channel driven Ca2+ uptake, Fluo-4 AM assay, mTRPM3alpha2 overexpressing flip-in HEK293 cells stimulated with pregnenolone sulfate (50 μM)
- Type: cell-based
- Test Context: mTRPM3 overexpressing HEK293 cells stimulated with pregnenolone sulfate (50 μM), activity ranges A, B, C
pIC50: −log10 of the molar value.
Result Type: pIC50

> print(dat)
                                   molecule                               test.target  experimental.value
1  Cc1ncsc1COc1ccc2nn(C)c(C(=O)NC(C)(CO)C(N)=O)c2c1 (single isomer, unassigned) [Cpd 151 - En2]  mouse TRPM3α2 (mTRPM3) ion channel (Mus musculus, UniProt J9SQF3)        4.70 to 6.00
2  Cc1ncc(COc2ccc3nn(C)c(C(=O)NC4(CO)CC4)c3c2)s1  mouse TRPM3α2 (mTRPM3) ion channel (Mus musculus, UniProt J9SQF3)              < 4.70
3  Cn1nc2ccc(OCc3cccnc3)cc2c1C(=O)NC1(CO)CCNC1=O (single isomer, unassigned) [Cpd 180 - En1]  mouse TRPM3α2 (mTRPM3) ion channel (Mus musculus, UniProt J9SQF3)              > 6.00
4  Cn1nc2ccc(OCc3ccccn3)cc2c1C(=O)NC1CNCC1C(F)(F)F (single isomer, unassigned) [Cpd 246 - En1]  mouse TRPM3α2 (mTRPM3) ion channel (Mus musculus, UniProt J9SQF3)              < 4.70
5  COc1ccc2nn(C)c(C(=O)NC(C)(CO)C(N)=O)c2c1 (single isomer, unassigned) [Cpd 172 - En1]  mouse TRPM3α2 (mTRPM3) ion channel (Mus musculus, UniProt J9SQF3)              < 4.70

Turning now to a further record.
Fill in: mouse TRPM3α2 (mTRPM3) ion channel (Mus musculus, UniProt J9SQF3) pIC50 for CCC(CO)(NC(=O)c1c2cc(OCc3ccccn3)ccc2nn1C)C(N)=O (stereo not drawn) = > 6.00

---

- Test Target: mouse TRPM3α2 (mTRPM3) ion channel (Mus musculus)
- Assay Notes: TRPM3 ion channel driven Ca2+ uptake, Fluo-4 AM assay, mTRPM3alpha2 overexpressing flip-in HEK293 cells stimulated with pregnenolone sulfate (50 μM)
- Test Context: mTRPM3 overexpressing HEK293 cells stimulated with pregnenolone sulfate (50 μM), activity ranges A, B, C
Result Type: IC50

Entry `Cc1ncsc1COc1ccc2nn(C)c(C(=O)Nc3ccn(C)n3)c2c1` , IC50 reported as 1 to 20 µM

Entry Cc1ncsc1COc1ccc2nn(C)c(C(=O)NC3CN(C)CC3(F)F)c2c1 (stereo not shown) , IC50 reported as 1 to 20 µM

Entry Cn1nc2ccc(OCC3COC3)cc2c1C(=O)NC(C)(CO)C(N)=O (single isomer, unassigned) [Cpd 167 - En1] , IC50 reported as > 20 µM

Entry `Cc1ncsc1COc1ccc2nn(C)c(C(=O)NC3(CCO)CCC3)c2c1` , IC50 reported as 1 to 20 µM

Entry Cn1nccc1COc1ccc2nn(C)c(C(=O)NC(C)(CO)C(N)=O)c2c1 (single isomer, unassigned) [Cpd 154 - En1] , IC50 reported as > 20 µM

Entry Cn1nc2ccc(OCc3ccccn3)cc2c1C(=O)NC1CNCC(F)(F)C1 (single isomer, unassigned) [Cpd 214 - En2] , IC50 reported as 1 to 20 µM

Entry `Cc1ncc(COc2ccc3nn(C)c(C(=O)N[C@@H](C)C(N)=O)c3c2)s1` , IC50 reported as 1 to 20 µM

Entry Cc1ncsc1COc1ccc2nn(C)c(C(=O)NC3CCNC3)c2c1 (single isomer, unassigned) [Cpd 215 - En1] , IC50 reported as > 20 µM

Entry `Cn1nccc1COc1ccc2nn(C)c(C(=O)NC3(CO)CCC3)c2c1` , IC50 reported as 1 to 20 µM

Entry Cn1nc2ccc(OCc3ccccc3)cc2c1C(=O)NC1CCNC1=O (stereo not shown) , IC50 reported as 1 to 20 µM

Entry `CN(C)C1(CNC(=O)c2c3cc(OCc4cccnc4C(F)(F)F)ccc3nn2C)CCC1` , IC50 reported as 1 to 20 µM

Entry Cn1nc2ccc(OCc3ccccn3)cc2c1C(=O)NC(CO)CC(N)=O (single isomer, unassigned) [Cpd 240 - En2] , IC50 reported as > 20 µM

Entry Cn1nc2ccc(OCc3cccnc3C(F)(F)F)cc2c1C(=O)NC1CCN(CC(F)(F)F)C1 (stereo not shown) , IC50 reported as 1 to 20 µM

Entry Cn1nc2ccc(OCc3ccccc3)cc2c1C(=O)NC1CNCC1(F)F (single isomer, unassigned) [Cpd 002 - En1] , IC50 reported as > 20 µM

Entry `Cn1nc2ccc(OCc3ccccc3)cc2c1C(=O)NCCN1CCOC1=O` , IC50 reported as > 20 µM

Entry `Cn1nc2ccc(OCc3ccccc3)cc2c1C(=O)NC1(CO)CCOCC1` , IC50 reported as 1 to 20 µM

---

- Test Target: mouse TRPM3α2 (mTRPM3) ion channel (Mus musculus, UniProt J9SQF3)
- Assay Notes: TRPM3 ion channel driven Ca2+ uptake, Fluo-4 AM assay, mTRPM3alpha2 overexpressing flip-in HEK293 cells stimulated with pregnenolone sulfate (50 μM)
- Test Context: mTRPM3 overexpressing HEK293 cells stimulated with pregnenolone sulfate (50 μM), activity ranges A, B, C
- Experimental: Monitoring the TRPM3 Ion Channel Driven Ca2+ Uptake. […] For mTRPM3, the intracellular Ca^2+ was measured with a Calcium responsive dye, Fluor-4 AM ester (Invitrogen). […] Channel inhibition was calculated compared to a non-PS stimulated control versus a condition stimulated with PS (50 μM) with vehicle. […]
pIC50: −log10 of the molar value.
Result Type: pIC50

Answered cases to consult:
> print(dat)
                                   molecule  experimental.value
1  Cc1ncsc1COc1ccc2nn(C)c(C(=O)NC3CCNC3=O)c2c1 (stereo not shown)        4.70 to 6.00
2  Cc1ncsc1COc1ccc2nn(C)c(C(=O)NC3(CO)COC3)c2c1        4.70 to 6.00

Turning now to a further record.
Entry `Cn1ccc(NC(=O)c2c3cc(OCc4ccccc4)ccc3nn2C)n1` , pIC50 reported as 4.70 to 6.00

Entry source: patent US20250376461A1
